The origin of these recorded values is PubChem BioAssay (NCI).

system: RPMI-8226 leukemia; experiment: NCI-60 one-dose screen, 48 h; conditions: 10 µM unless noted
Compounds without any hit were thinned out: in the full panel of roughly 83,000, 20% have a hit. The source made the active and inactive calls. The calls were made as follows: active = growth percent below 10; inactive = the rest.
Labels: active, inactive

CC(=O)[C@@]1(O)CC[C@H]2[C@@H]3CC[C@@H]4CC(=O)CC[C@]4(C)[C@H]3[C@@H](O)C[C@@]21C ... inactive
CCOc1ccc(C(=O)O)cc1 ... inactive
S=C(NCc1ccccc1)N1CCC(CCCC2CCN(C(=S)NCc3ccccc3)CC2)CC1 ... inactive
Nc1ncnc2c1ncn2C1OC(CO)C2OC21 (configuration not stated) ... inactive
CC(=O)N(C(C)=O)c1ccc(C)cc1 ... inactive
CCOC(=O)CNC ... inactive
CC(C)(CC(=O)O)CC(=O)O ... inactive
Cc1cccc2ccccc12 ... inactive
Cc1ccc(S(=O)(=O)Oc2ccc3sc4c(CO)ccc(NCCN(C)C)c4c(=O)c3c2)cc1 ... active
C=CCS(C)(=O)=O ... inactive
CC(C)C(=O)OCCOc1ccc(C(C)(C)C)cc1 ... inactive
CCN(Cc1ccc(Cl)c(Cl)c1)c1ccc2nc(N)nc(N)c2c1C ... active
